Reported activity change, negative = inhibition values for the following compounds.
# testDetails: qHTS Assay for Lipid Storage Modulators (AID 1519); note: % is set by controls: 0 for no effect and ±100 for the full control effect
# particulars: Drosophila S3 cells, BODIPY lipid droplet/cell ratio, laser cytometry; at 57.5 µM (top of the series); cells loaded with oleic acid
Records with an inconclusive call do not appear.
assayMetric: activity change, negative = inhibition (%)

1) COc1cc2c(cc1O)CCC1C2CC[C@@]2(C)C1CC[C@@H]2O (some centres undefined) : -1.86
2) Oc1cc2c(cc1O)C1c3ccc(O)c(O)c3OCC1(O)C2 (centres undefined) : 6.13
3) c1coc(CNc2ncnc3nc[nH]c23)c1 : 6.17
4) CC(Cc1ccc(O)c(O)c1)(NN)C(=O)O (centres undefined) : 4.17

###

# testDetails: Quantitative High-Throughput drug screen in 47 multiple myeloma cell lines against the NCATS MIPE library collection: KMS28PE_JCRB cell viability assay (AID 1918983); note: nearly all actives have a fitted effect of over 35% in size; note: potency is the fitted concentration of half-maximal effect
# particulars: KMS28PE multiple myeloma viability, CellTiter-Glo ATP, 48 h; series mostly up to 45.8 µM
Inconclusive results are not listed. Calls of active or inactive are those of the source. The call rests on the fitted dose curve; in most records, active means well fitted cell-killing curve with a large enough effect; inconclusive means small, poorly fitted or top-dose-only effect, or effect the other way; inactive means no such curve, though single readings can be large or run the other way. Non-standard residues stand in square brackets, D forms with d. Residues, ends and D or L forms follow the SMILES beside them. *: point of attachment. Nva = CCC[C@H](N)C(=O)O; Cbz = O=C(OCc1ccccc1)*
assayMetric: Potency

1) CCc1cnn2c(NCc3ccc[n+]([O-])c3)cc(N3CCCC[C@@H]3CCO)nc12 : 0.0296 µM (active)
2) OCCNC1CCCc2c1[nH]c1ccc(-c3ccccc3)cc21 (centres undefined) : 23.5 µM (active)
3) COc1ccc2cc([S+]([O-])Cc3ncc(C)c(OC)c3C)nc2c1 : inactive
4) NC(=NCCCCCCN=C(N)N=C(N)Nc1ccc(Cl)cc1)N=C(N)Nc1ccc(Cl)cc1 : 16.6 µM (active)
5) Cc1cnc(Nc2ccc(N3CCN(C)CC3)cc2)nc1Nc1cccc(S(=O)(=O)NC(C)(C)C)c1 : 7.43 µM (active)
6) Cn1cnc(=N)c2[nH]cnc21 : 0.105 µM (active)
7) CC(C=CC1=C(C)CCCC1(C)C)=CC=CC(C)=CC(=O)Nc1ccc(O)cc1 : 21.5 µM (active)
8) CC(C)(O)[C@H]1CC[C@@](C)([C@H]2[C@@H](O)C[C@@]3(C)[C@@H]4C[C@H](O[C@@H]5O[C@H](CO)[C@@H](O)[C@H](O)[C@@H]5O)[C@H]5C(C)(C)[C@@H](O[C@@H]6OC[C@@H](O)[C@H](O)[C@@H]6O)CC[C@@]56C[C@@]46CC[C@]23C)O1 : inactive
9) CCOC(=O)N1CCN([N+]([O-])=NOc2ccc([N+](=O)[O-])cc2C#N)CC1 : 1.18 µM (active)
10) CCC[C@@H](C=O)NC(=O)[C@H](CC(C)C)NC(=O)[C@H](CC(C)C)NC(=O)OCc1ccccc1 (Cbz-Leu-Leu-[Nva]-aldehyde) : 0.662 µM (active)
11) Cn1cc(-c2ccc3ncc(Cc4ccc5ncccc5c4)n3n2)cn1 : inactive
12) CCCNS(=O)(=O)Nc1ncnc(OCCOc2ncc(Br)cn2)c1-c1ccc(Br)cc1 : inactive
13) Cc1cc(Nc2ncc3c(n2)N(C)C(=O)N(c2cc(NC(=O)c4cccc(C(F)(F)F)c4)ccc2C)C3)n(C)n1 : 1.32 µM (active)
14) COC1=C2C[C@@H](C)C[C@H](OC)[C@@H](O)[C@@H](C)C=C(C)[C@H](OC(N)=O)[C@@H](OC)C=CC=C(C)C(=O)NC(=CC1=O)C2=O : 0.132 µM (active)
15) CC[C@H]1OC(=O)[C@H](C)[C@@H](O[C@H]2C[C@@](C)(OC)[C@@H](O)[C@H](C)O2)[C@H](C)[C@@H](O[C@@H]2O[C@H](C)C[C@H](N(C)C)[C@@H]2O)[C@](C)(OC)C[C@@H](C)C(=O)[C@H](C)[C@@H](O)[C@]1(C)O : inactive
16) CCCCCN=C(N)NN=Cc1c[nH]c2ccc(OC)cc12 : 10.5 µM (active)
17) O=C(C=Cc1ccc(CN(CCO)CCc2c[nH]c3ccccc23)cc1)NO : 0.132 µM (active)
18) Nc1nc(N)c2nc(-c3cccc(O)c3)c(-c3cccc(O)c3)nc2n1 : 26.4 µM (active)
19) COC(=O)[C@@H]1CC2=CC(=O)CC[C@]2(C)[C@@]23O[C@@H]2C[C@@]2(C)[C@H](CC[C@@]24CCC(=O)O4)[C@@H]13 : inactive
20) CC(C=CC(=O)NO)=C[C@@H](C)C(=O)c1ccc(N(C)C)cc1 : 0.296 µM (active)
21) CCOC(=O)N1CCN([N+]([O-])=NOc2ccc([N+](=O)[O-])cc2[N+](=O)[O-])CC1 : 1.32 µM (active)
22) CC[C@H](CC[C@@H](C)[C@H]1CC[C@H]2[C@@H]3CC=C4C[C@@H](O)CC[C@]4(C)[C@@H]3CC[C@]12C)C(C)C : inactive
23) N=c1ccn2c(n1)O[C@H]1[C@@H](O)[C@@H](CO)O[C@H]12 : inactive
24) N#CC(=C(O)c1ccc(Cl)cc1Cl)c1nc2cc(Cl)ccc2c(=O)[nH]1 : inactive
25) C[C@@H](Oc1ccc2[nH]nc(C=Cc3cnn(CCO)c3)c2c1)c1c(Cl)cncc1Cl : 4.18 µM (active)
26) Cc1ccccc1C(=O)Nc1ccc(C(=O)N2CCCC(O)c3cc(Cl)ccc32)c(C)c1 (centres undefined) : inactive
27) c1coc(CNc2ncnc3nc[nH]c23)c1 : inactive
28) C#CCC(Cc1cnc2nc(N)nc(N)c2n1)c1ccc(C(=O)N[C@@H](CCC(=O)O)C(=O)O)cc1 (some centres undefined) : inactive
29) NC(=O)Nc1cc(-c2ccc(CN3CCOCC3)cc2)sc1C(N)=O : 18.7 µM (active)
30) COc1cc(OC)cc(-c2ccc3ncc4ccc(=O)n(-c5ccc(N6CCNCC6)c(C(F)(F)F)c5)c4c3c2)c1 : 5.26 µM (active)
31) C=C(C)[C@@H]1CC[C@]2(C)CC[C@]3(C)[C@H](CC[C@@H]4[C@@]5(C)CC[C@H](O)C(C)(C)[C@H]5CC[C@]43C)[C@@H]12 : inactive
32) CC(C)(C)c1nc2c3cc[nH]c(=O)c3c3cc(F)ccc3c2[nH]1 : 6.62 µM (active)
33) CC(C)c1cnn2c(NCc3ccccc3)cc(NCCCCCCN)nc12 : 14.8 µM (active)
34) C=CCNc1c(O)cc2c(O)c1C[C@@H](C)C[C@H](OC)[C@@H](O)[C@@H](C)C=C(C)[C@H](OC(N)=O)[C@@H](OC)C=CC=C(C)C(=O)N2 : 0.418 µM (active)
